The following molecules are listed with their measured IC50 values.
Biological target: Sodium- and chloride-dependent GABA transporter 1 (Mus musculus)
Experiment: Inhibition of mouse GAT1-mediated [3H]GABA uptake stably transfected in HEK293 cells
Readout Label: IC50 (µM)

# Molecule, Readout Number
rows = [
    ("Cc1ccc(CNC(=O)C(CCO)N(C)CCCC(c2ccccc2)c2ccccc2)cc1 (stereo not given)", 37.2),
    ("O=C(NCc1ccccc1)C(CCO)N1CCC(=C(c2ccccc2)c2ccccc2)CC1 (stereo not given)", 14.8),
    ("Cc1ccc(CNC(=O)C(CCO)N2CCC(=C(c3ccccc3)c3ccccc3)CC2)cc1 (stereo not given)", 38),
    ("CN(CCC=C(c1ccccc1)c1ccccc1)C(CCO)C(=O)NCc1ccccc1Cl (stereo not given)", 19.1),
    ("O=C(NCc1ccc(F)cc1)C(CCO)N1CCC(=C(c2ccccc2)c2ccccc2)CC1 (stereo not given)", 9.77),
]

====

Each item that follows carries a reported pKi.
Target: Sodium- and chloride-dependent GABA transporter 1 (Mus musculus)
Assay: Binding affinity to mouse GAT1 stably transfected in HEK293 cells by NO-711 binding assay
pKi: −log10 of the molar value.

# Compound, pKi
rows = [
    ("O=C(NCc1ccc(Cl)cc1)C(CCO)N1CCC(=C(c2ccccc2)c2ccccc2)CC1 (stereo not given)", 4.12),
    ("C[C@@H](O)C[C@H](C(=O)NCc1ccc(F)cc1)N1CCC(=C(c2ccccc2)c2ccccc2)CC1 (relative stereo)", 4.37),
    ("Cc1ccsc1C(=CCCN1CCC[C@@H](C(=O)O)C1)c1sccc1C", 7.41),
    ("Cc1ccc(CNC(=O)C(CCO)N(C)CCCC(c2ccccc2)c2ccccc2)cc1 (stereo not given)", 4.09),
    ("O=C(NCc1ccccc1Cl)C(CCO)NCCCC(c1ccccc1)c1ccccc1 (stereo not given)", 4.33),
]

====

Target: Sodium- and chloride-dependent GABA transporter 1 (Mus musculus, UniProt P31648)
Experiment: Binding affinity to mouse GAT1 stably transfected in HEK293 cells by NO-711 binding assay
Let's look at some compounds and their measured Ki.
Readout Label: Ki (µM)

# Compound, Readout Label, Readout Number
records = [
    ("Cc1ccc(CNC(=O)C(CCO)NCCCC(c2ccccc2)c2ccccc2)cc1 (stereo not given)", "Ki", 51.3),
    ("O=C(NCc1ccc(F)cc1)C(CCO)N1CCC(=C(c2ccccc2)c2ccccc2)CC1 (stereo not given)", "Ki", 11.5),
    ("O=C(NCc1ccccc1)C(CCO)N1CCC(=C(c2ccccc2)c2ccccc2)CC1 (stereo not given)", "Ki", 9.12),
    ("Cc1ccc(CNC(=O)C(CCO)N2CCC(=C(c3ccccc3)c3ccccc3)CC2)cc1 (stereo not given)", "Ki", 43.7),
    ("O=C(NCc1ccc(Cl)cc1)C(CCO)NCCCC(c1ccccc1)c1ccccc1 (stereo not given)", "Ki", 56.2),
]

====

Molecular target: Sodium- and chloride-dependent GABA transporter 1 (Mus musculus) (UniProt P31648)
Assay: Binding affinity to mouse GAT1 stably transfected in HEK293 cells assessed as residual binding at 100 uM relative to control
Type: cell-based
Measured Activity values are reported for all entries that follow.
Readout Label: Activity (%)

# Compound, Readout Label, Readout Number
rows = [
    ("O=C(NCc1ccccc1)C(CCO)N1CCC(C(c2ccccc2)c2ccccc2)CC1 (stereo not drawn)", "Activity", 55),
    ("C[C@H](O)C[C@H](C(=O)NCc1ccc(Cl)cc1)N1CCC(=C(c2ccccc2)c2ccccc2)CC1 (relative stereo)", "Activity", 69),
    ("Cc1ccc(CNC(=O)C(CCO)N2CCC(C(c3ccccc3)c3ccccc3)CC2)cc1 (stereo not drawn)", "Activity", 55),
    ("CN(CCC=C(c1ccccc1)c1ccccc1)C(CCO)C(=O)NCc1ccccc1 (stereo not drawn)", "Activity", 50),
    ("CN(CCC=C(c1ccccc1)c1ccccc1)C(CCO)C(=O)NCc1ccc(F)cc1 (stereo not drawn)", "Activity", 73),
    ("C[C@H](O)C[C@H](C(=O)NCc1ccccc1)N1CCC(=C(c2ccccc2)c2ccccc2)CC1 (relative stereo)", "Activity", 51),
    ("C[C@@H](O)C[C@H](C(=O)NCc1ccccc1Cl)N1CCC(=C(c2ccccc2)c2ccccc2)CC1 (relative stereo)", "Activity", 99),
    ("O=C(NCc1ccc(Cl)cc1)C(CCO)N1CCC(C(c2ccccc2)c2ccccc2)CC1 (stereo not drawn)", "Activity", 68),
]

All values here come from ChEMBL document CHEMBL2412952.
